Measured pIC50 values are reported for all entries that follow.
target: Human recombinant MMP-9 (Homo sapiens, UniProt P14780); construct: made in house; host or cells: MMP-9-transfected HT1080 cells (spent media); test: In vitro MMP inhibition, IC50 determination (fluorogenic substrate I); format: biochemical; details: value outside parentheses (Ki in parenthesis)
Sequence (P14780 107-707 limits assumed): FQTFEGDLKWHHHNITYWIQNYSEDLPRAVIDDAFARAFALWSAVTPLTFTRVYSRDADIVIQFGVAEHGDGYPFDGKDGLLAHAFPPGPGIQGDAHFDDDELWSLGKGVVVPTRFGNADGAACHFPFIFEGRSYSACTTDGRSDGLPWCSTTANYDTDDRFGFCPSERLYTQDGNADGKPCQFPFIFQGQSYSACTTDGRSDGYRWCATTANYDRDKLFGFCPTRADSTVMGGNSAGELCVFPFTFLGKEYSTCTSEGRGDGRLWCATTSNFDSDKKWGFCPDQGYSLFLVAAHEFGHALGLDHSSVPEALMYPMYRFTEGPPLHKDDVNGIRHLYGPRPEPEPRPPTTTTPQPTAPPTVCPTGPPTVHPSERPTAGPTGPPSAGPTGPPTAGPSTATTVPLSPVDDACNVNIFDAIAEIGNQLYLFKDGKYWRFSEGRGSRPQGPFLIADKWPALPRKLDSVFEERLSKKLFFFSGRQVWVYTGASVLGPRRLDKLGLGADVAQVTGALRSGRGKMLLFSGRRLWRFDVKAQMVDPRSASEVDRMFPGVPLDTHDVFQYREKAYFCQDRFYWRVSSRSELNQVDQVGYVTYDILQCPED
pIC50: −log10 of the molar value.

# Compound, System name, Prefix operator, pIC50
measured = [
    ("Cc1cc(C(=O)CCCCOc2ccc(S(=O)(=O)C3(C(=O)NO)CCOCC3)cc2)ccc1OC(C)C [Example 340]", "Human recombinant MMP-9 (Homo sapiens, UniProt P14780)", "=", 5.25),
    ("Cc1ccc(C(=O)NCCCOc2ccc(S(=O)(=O)C3(C(=O)NO)CCOCC3)cc2)cc1C [Example 371]", "Human recombinant MMP-9 (Homo sapiens, UniProt P14780)", "=", 5.02),
    ("Cc1cc(-c2nnc(CCCOc3ccc(S(=O)(=O)C4(C(=O)NO)CCOCC4)cc3)o2)ccc1OC(C)C [Example 294]", "Human recombinant MMP-9 (Homo sapiens, UniProt P14780)", "=", 6.35),
    ("CN(C)c1ccc(C(=O)CCCOc2ccc(S(=O)(=O)C3(C(=O)NO)CCOCC3)cc2)cc1 [Example 490]", "Human recombinant MMP-9 (Homo sapiens, UniProt P14780)", "=", 6.03),
    ("CC(C)(C)c1ccc(C(=O)CCCCOc2ccc(S(=O)(=O)C3(C(=O)NO)CCOCC3)cc2)cc1 [Example 327]", "Human recombinant MMP-9 (Homo sapiens, UniProt P14780)", "=", 5.28),
    ("CCCC(=O)C(C)CCOc1ccc(S(=O)(=O)C2(C(=O)NO)CCOCC2)cc1 (stereo not shown) [Example 295]", "Human recombinant MMP-9 (Homo sapiens, UniProt P14780)", "=", 6.76),
    ("O=C1c2cc(Cl)c(Cl)cc2C(=O)N1CCCOc1ccc(S(=O)(=O)C2(C(=O)NO)CCOCC2)cc1 [Example 333]", "Human recombinant MMP-9 (Homo sapiens, UniProt P14780)", "=", 5.49),
    ("CN(C)c1ccc(C(=O)NCCCOc2ccc(S(=O)(=O)C3(C(=O)NO)CCOCC3)cc2)cc1 [Example 361]", "Human recombinant MMP-9 (Homo sapiens, UniProt P14780)", "<", 5.00),
    ("O=C(NO)C1(S(=O)(=O)c2ccc(OCCCOc3ccc(C(F)(F)F)cc3)cc2)CCN(C2CC2)CC1 [Example 319]", "Human recombinant MMP-9 (Homo sapiens, UniProt P14780)", "=", 6.59),
    ("O=C(CCCOc1ccc(S(=O)(=O)C2(C(=O)NO)CCOCC2)cc1)c1cccc(-c2ccccc2)c1 [Example 353]", "Human recombinant MMP-9 (Homo sapiens, UniProt P14780)", "=", 5.94),
    ("O=C(CCCCOc1ccc(S(=O)(=O)C2(C(=O)NO)CCOCC2)cc1)c1cccs1 [Example 324]", "Human recombinant MMP-9 (Homo sapiens, UniProt P14780)", "=", 6.30),
    ("O=C(NO)C1(S(=O)(=O)c2ccc(NCCCCc3ccccc3)cc2)CCOCC1 [Example 462]", "Human recombinant MMP-9 (Homo sapiens, UniProt P14780)", "=", 7.74),
    ("CCCCCc1ccc(-c2nnc(CCCOc3ccc(S(=O)(=O)C4(C(=O)NO)CCOCC4)cc3)o2)cc1 [Example 316]", "Human recombinant MMP-9 (Homo sapiens, UniProt P14780)", "=", 6.16),
    ("COc1cc2c(cc1OC)C(C)N(C(=O)OCCCCOc1ccc(S(=O)(=O)C3(C(=O)NO)CCOCC3)cc1)CC2 (stereo not shown) [Example 335]", "Human recombinant MMP-9 (Homo sapiens, UniProt P14780)", "=", 6.76),
    ("CC(CCc1ccccc1)Oc1ccc(S(=O)(=O)C2(C(=O)NO)CCOCC2)cc1 (stereo not shown) [Example 467]", "Human recombinant MMP-9 (Homo sapiens, UniProt P14780)", "=", 6.35),
    ("O=C(NO)C1(S(=O)(=O)c2ccc(OCCCCCN3CCc4ccccc4C3)cc2)CCOCC1 [Example 360]", "Human recombinant MMP-9 (Homo sapiens, UniProt P14780)", "=", 6.26),
]

---

biological target: Human recombinant MMP-2 (Homo sapiens); construct: made in house; host or cells: MMP-2-transfected p2AHT2 cells; experiment: In vitro MMP inhibition, IC50 determination (fluorogenic substrate I); type: biochemical; conditions: value outside parentheses (Ki in parenthesis)
Sequence (P08253 110-660): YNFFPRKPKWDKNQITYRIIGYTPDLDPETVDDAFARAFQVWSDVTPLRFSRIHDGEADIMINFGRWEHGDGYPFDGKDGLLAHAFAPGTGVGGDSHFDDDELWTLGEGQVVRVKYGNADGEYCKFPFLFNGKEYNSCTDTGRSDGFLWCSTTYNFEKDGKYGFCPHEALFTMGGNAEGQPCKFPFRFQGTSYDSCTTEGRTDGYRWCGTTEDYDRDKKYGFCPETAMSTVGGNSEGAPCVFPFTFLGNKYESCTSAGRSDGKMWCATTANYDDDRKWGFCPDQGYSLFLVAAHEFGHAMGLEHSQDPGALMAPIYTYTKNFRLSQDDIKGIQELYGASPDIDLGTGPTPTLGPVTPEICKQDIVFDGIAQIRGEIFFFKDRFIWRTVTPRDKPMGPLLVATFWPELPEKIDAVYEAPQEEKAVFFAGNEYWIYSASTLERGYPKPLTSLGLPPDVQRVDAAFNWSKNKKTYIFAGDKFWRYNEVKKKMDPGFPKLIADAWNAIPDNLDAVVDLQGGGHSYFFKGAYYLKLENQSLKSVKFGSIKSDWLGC
pIC50: −log10 of the molar value.

# Compound, pIC50
measured = [
    ("CC(C)N(Cc1ccc(C(=O)CCCOc2ccc(S(=O)(=O)C3(C(=O)NO)CCOCC3)cc2)cc1)C(C)C", 7.92),
    ("O=C(CCCOc1ccc(S(=O)(=O)C2(C(=O)NO)CCOCC2)cc1)c1ccccc1-c1ccccc1", 7.90),
    ("O=C(NO)C1(S(=O)(=O)c2ccc(OCCCCCc3ccc4ccccc4c3)cc2)CCOCC1", 7.34),
    ("O=C(CCCOc1ccc(S(=O)(=O)C2(C(=O)NO)CCOCC2)cc1)c1cccs1", 8.09),
    ("COc1ccc(NC(=O)NCCOc2ccc(S(=O)(=O)C3(C(=O)NO)CCOCC3)cc2)cc1", 5.82),
    ("O=C(CCCCOc1ccc(S(=O)(=O)C2(C(=O)NO)CCOCC2)cc1)c1ccccc1", 8.13),
    ("C[C@@H](COc1ccc(S(=O)(=O)C2(C(=O)NO)CCOCC2)cc1)NC(=O)c1ccc(N(C)C)cc1", 5.22),
    ("O=C(NO)C1(S(=O)(=O)c2ccc(OCCCOCc3cc(C(F)(F)F)cc(C(F)(F)F)c3)cc2)CCOCC1", 6.78),
    ("CCCC(CCOc1ccc(S(=O)(=O)C2(C(=O)NO)CCOCC2)cc1)SC (stereo not shown)", 7.52),
    ("COc1ccc(CCCOc2ccc(S(=O)(=O)C3(C(=O)NO)CCOCC3)cc2)cc1", 8.40),
    ("COc1ccc(C(C)(O)CCCCOc2ccc(S(=O)(=O)C3(C(=O)NO)CCOCC3)cc2)cc1 (stereo not shown)", 7.99),
    ("CN(C)c1ccc(/C=C/CCCOc2ccc(S(=O)(=O)C3(C(=O)NO)CCOCC3)cc2)cc1", 6.97),
    ("COc1ccc(OCCCOc2ccc(S(=O)(=O)C3(C(=O)NO)CCOCC3)cc2)cc1", 8.05),
    ("O=C(NO)C1(S(=O)(=O)c2ccc(OCCCN(c3nc4ccccc4s3)c3nc4ccccc4s3)cc2)CCOCC1", 5.23),
    ("CCOc1ccc2nc(SCCOc3ccc(S(=O)(=O)C4(C(=O)NO)CCOCC4)cc3)sc2c1", 6.58),
    ("COc1ccc(-c2nnc(CCCCOc3ccc(S(=O)(=O)C4(C(=O)NO)CCOCC4)cc3)o2)cc1", 8.59),
    ("COc1ccc(SC[C@@H](C)COc2ccc(S(=O)(=O)C3(C(=O)NO)CCOCC3)cc2)cc1", 8.15),
    ("O=C(NCCCOc1ccc(S(=O)(=O)C2(C(=O)NO)CCOCC2)cc1)c1cc2ccccc2cc1O", 6.44),
    ("COc1ccc(C(=O)NCCCOc2ccc(S(=O)(=O)C3(C(=O)NO)CCOCC3)cc2)cc1OC", 6.46),
    ("COc1ccc(OC)c(S(=O)(=O)N2CC(Oc3ccc(S(=O)(=O)C4(C(=O)NO)CCOCC4)cc3)C2)c1", 6.19),
    ("O=C(NCCCOc1ccc(S(=O)(=O)C2(C(=O)NO)CCOCC2)cc1)c1cc2cc(O)ccc2cc1O", 6.18),
    ("O=C(NO)C1(S(=O)(=O)c2ccc(OCCCN3CCCc4ccccc43)cc2)CCOCC1", 6.50),
    ("O=C(NCCCOc1ccc(S(=O)(=O)C2(C(=O)NO)CCOCC2)cc1)c1ccc(-c2ccccc2)cc1", 7.68),
    ("CCCC(C)(C)C(=O)NCCCOc1ccc(S(=O)(=O)C2(C(=O)NO)CCOCC2)cc1", 6.34),
    ("O=C(NO)C1(S(=O)(=O)c2ccc(OCCSc3nc4c(Cl)cc(Cl)cc4o3)cc2)CCOCC1", 7.64),
    ("O=C(NO)C1(S(=O)(=O)c2ccc(OCCCCCN3CCCc4ccccc43)cc2)CCOCC1", 7.43),
    ("C[C@@H]1[C@H](c2ccccc2)OC(=O)N1CCCOc1ccc(S(=O)(=O)C2(C(=O)NO)CCOCC2)cc1", 6.75),
    ("COc1ccc(C(=O)[C@H](O)CCOc2ccc(S(=O)(=O)C3(C(=O)NO)CCOCC3)cc2)cc1", 6.21),
    ("CC(C)(C(=O)NCCCOc1ccc(S(=O)(=O)C2(C(=O)NO)CCOCC2)cc1)c1ccccc1", 6.60),
    ("CCCCOc1ccc(OCCCOc2ccc(S(=O)(=O)C3(C(=O)NO)CCOCC3)cc2)cc1", 7.12),
    ("CC(C)(C)c1ccc(C(=O)CCCCOc2ccc(S(=O)(=O)C3(C(=O)NO)CCOCC3)cc2)cc1", 7.29),
]
